// provenance: paper PMC10447463

Exercise: state measured Zeta Count Rate / kcps for each of the substances provided.
- Test method notes: Turbidity, derived count rate of scattered light
- Format: physicochemical
- Test parameters: derived count rate from zeta measurement; mean

Below: 2 substances and their reported Zeta Count Rate / kcps.
[[record]]
substance = "KIKQIINMWQ [JG2]"
reported_metric = "Zeta Count Rate / kcps"
reported_result = "615.5 kcps"

[[record]]
substance = "CEIEIQINMWQ [TM143]"
reported_metric = "Zeta Count Rate / kcps"
reported_result = "1570 kcps"


What value of Zeta Count Rate / kcps has been reported for the following substance? CKIKIQI [MG3b]
2432.9 kcps

---

- Format: physicochemical
- Test parameters: ThT category; 1 if Rel. ThT >2
- Experimental: 4 µL of 1 mg/mL peptide fibrils solution is added to a 20 µL, 50 µM ThT–solution in PBS. The mixture is incubated for 15 min at RT to allow binding of ThT dye with β–sheet rich structures. […] Fluorescence spectra were recorded on an Infinite® M1000 PRO microplate reader (Tecan) at λem = 488 nm upon excitation at λex = 440 nm with 10 nm bandwidths and multiple reads per well (3×3). […] Furthermore, fluorescence microscopy was conducted by staining 1 µL preformed fibrils (1 mg/mL) with 9 µL ThT (50 µM). […]
Reported metric: ThT Cat.

Below: 5 substances and their reported ThT Cat..
[[record]]
substance = "HHHHKAKAKAKAWWWW"
reported_metric = "ThT Cat."
reported_result = "1 (ThT. Cat is 1, if Rel. ThT >2)"

[[record]]
substance = "HLHLPLL"
reported_metric = "ThT Cat."
reported_result = "0 (ThT-inactive (N-Fold <2))"

[[record]]
substance = "QCKFKFQF"
reported_metric = "ThT Cat."
reported_result = "1 (ThT. Cat is 1, if Rel. ThT >2)"

[[record]]
substance = "KIKIQINMWQRGD"
reported_metric = "ThT Cat."
reported_result = "0 (ThT-inactive (N-Fold <2))"

[[record]]
substance = "RLRLTLC"
reported_metric = "ThT Cat."
reported_result = "0 (ThT-inactive (N-Fold <2))"


Please state, for each entry, its recorded ThT Cat..
1. CRFRVPF
2. RGECKFKFQF
3. CKFKFQFNM

1: 0 (ThT-inactive (N-Fold <2)); 2: 1 (ThT. Cat is 1, if Rel. ThT >2); 3: 1 (ThT. Cat is 1, if Rel. ThT >2)

Please state, for each entry, its recorded ThT Cat..
1. KFKQFFNMWQ
2. EIEIQINMWQ
3. CEIEIQI
4. HIHIQIC
5. KIKIQINMWWQ
6. QCKAKAQANMWQ
7. KNERIKNERI

0 (ThT-inactive (N-Fold <2))
1 (ThT. Cat is 1, if Rel. ThT >2)
1 (ThT. Cat is 1, if Rel. ThT >2)
1 (ThT. Cat is 1, if Rel. ThT >2)
0 (ThT-inactive (N-Fold <2))
0 (ThT-inactive (N-Fold <2))
0 (ThT-inactive (N-Fold <2))

Please state, for each entry, its recorded ThT Cat..
1. KIRGKFEKED
2. KFKFQFW
3. CKAKAQANMWQ

1: 1 (ThT. Cat is 1, if Rel. ThT >2); 2: 1 (ThT. Cat is 1, if Rel. ThT >2); 3: 0 (ThT-inactive (N-Fold <2))

Please state, for each entry, its recorded ThT Cat..
1. CETMYDKILKNLSRSR
2. IKVAVKIKIQINM
3. CRFRFQF

1. 0 (ThT-inactive (N-Fold <2))
2. 0 (ThT-inactive (N-Fold <2))
3. 1 (ThT. Cat is 1, if Rel. ThT >2)

Please state, for each entry, its recorded ThT Cat..
1. KVKVKVQV
2. CKIKIQINMW

1: 1 (ThT. Cat is 1, if Rel. ThT >2); 2: 0 (ThT-inactive (N-Fold <2))

Please state, for each entry, its recorded ThT Cat..
1. CKFKFQFW
2. ILKNLSRSRKIKIQINMWQ
3. QCKAKAQA

1. 0 (ThT-inactive (N-Fold <2))
2. 1 (ThT. Cat is 1, if Rel. ThT >2)
3. 0 (ThT-inactive (N-Fold <2))

Please state, for each entry, its recorded ThT Cat..
1. QCKFKFQFNMWQ
2. KFKFQFNM

1. 0 (ThT-inactive (N-Fold <2))
2. 0 (ThT-inactive (N-Fold <2))

Please state, for each entry, its recorded ThT Cat..
1. QCKFKFQFNM
2. QCKAKAQANM
3. RGDKIRGDKI
4. CKFKQFFNM
5. CHLHLQL
6. HGEHGE

1 (ThT. Cat is 1, if Rel. ThT >2)
0 (ThT-inactive (N-Fold <2))
0 (ThT-inactive (N-Fold <2))
1 (ThT. Cat is 1, if Rel. ThT >2)
1 (ThT. Cat is 1, if Rel. ThT >2)
0 (ThT-inactive (N-Fold <2))
